System: CD8+ T cells
test: In vitro immunogenicity: T-cell priming with aAPCs loaded with peptide/MHC and anti-CD28, pMHC multimer readout
Assay type: cell-based, human
assay.conditions: HLA-A*02 restricted peptides
measured.parameter: Wells positive [%]

Inquiry: Please report Wells positive [%] with CD8+ T cells for item 499 (KIFDIDEAEEGV; listed as Homo sapiens) [compound 499] .
Reply text: ″+″ (<20% = +)

Inquiry: Fill: Wells positive [%] (CD8+ T cells) for this substance 113 (GLLPTPLFGV; listed as Homo sapiens) [compound 113]
Reply text: ″+″ (<20% = +)

Inquiry: For CD8+ T cells, give the measured Wells positive [%] of the entry 2 (SLLEADPFL; listed as Homo sapiens) [compound 2]
Reply text: ″+″ (<20% = +)
